# target_or_test_system: Melanin-concentrating hormone receptor 1 (Mus musculus) (UniProt Q8JZL2)
# Sequence (Q8JZL2 whole entry): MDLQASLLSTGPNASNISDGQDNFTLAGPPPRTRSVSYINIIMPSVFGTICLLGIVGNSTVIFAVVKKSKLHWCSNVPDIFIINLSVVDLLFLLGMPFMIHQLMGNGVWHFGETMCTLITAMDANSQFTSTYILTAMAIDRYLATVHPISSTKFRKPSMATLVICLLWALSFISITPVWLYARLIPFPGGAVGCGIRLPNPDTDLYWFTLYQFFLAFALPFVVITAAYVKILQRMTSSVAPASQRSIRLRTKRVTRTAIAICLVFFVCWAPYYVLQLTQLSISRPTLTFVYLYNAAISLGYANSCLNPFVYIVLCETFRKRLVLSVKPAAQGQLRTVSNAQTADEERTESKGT
# assay_name: Receptor occupancy ex vivo by displacement of [125I]S36057 binding from MCHR1 in C57BL/6N mouse brain after 6 hrs at 30 mg/kg, po
# Assay type: functional, organism-based
# Set-up: dose 30 mg/kg
value_type: Activity (%)

CN1CCN(CCCN(C(=O)Nc2ccc(F)c(Cl)c2)[C@@H]2CC[C@]3(c4cccnc4)C[C@H]23)CC1 (relative stereo) ... 25

[a] CN1CCN(CCCN(C(=O)Nc2ccc(F)c(Cl)c2)[C@@H]2CC[C@]3(c4cccc(N)c4)C[C@H]23)CC1 (relative stereo)
[b] CN1CCN(CCCN(C(=O)Nc2ccc(F)c(Cl)c2)[C@@H]2CC[C@]3(c4cc(F)cc(F)c4)C[C@H]23)CC1 (relative stereo)
Qu. # query: argmin of Activity over a and b In your reply, give the label of the chosen option.
Ans. a
(a: 37%, b: 65%)

###

# target_or_test_system: Melanin-concentrating hormone receptor 1 (Mus musculus) (UniProt Q8JZL2)
# assay_name: Receptor occupancy ex vivo by displacement of [125I]S36057 binding from MCHR1 in C57BL/6N mouse brain after 24 hrs at 30 mg/kg, po
# Type: functional, organism-based
# Set-up: dose 30 mg/kg
value_type: Activity (%)

Record excerpt, results attached:
CN1CCN(CCCN(C(=O)Nc2ccc(F)c(Cl)c2)[C@@H]2CC[C@]3(c4ccc(F)c(F)c4)C[C@H]23)CC1 (relative stereo) ... 0
CN1CCN(CCCN(C(=O)Nc2ccc(F)c(Cl)c2)[C@@H]2CC[C@]3(c4cccc(OC(F)(F)F)c4)C[C@H]23)CC1 (relative stereo) ... 12

[a] CN1CCN(CCCN(C(=O)Nc2ccc(F)c(Cl)c2)[C@@H]2CC[C@]3(c4ccccc4)C[C@H]23)CC1 (relative stereo)
[b] CN1CCN(CCCN(C(=O)Nc2ccc(F)c(C(F)(F)F)c2)[C@@H]2CC[C@]3(c4ccc(F)c(C#N)c4)C[C@H]23)CC1 (relative stereo)
[c] COc1ccc([C@]23CC[C@@H](N(CCCN4CCN(C)CC4)C(=O)Nc4ccc(F)c(C(F)(F)F)c4)[C@H]2C3)cc1 (relative stereo)
[d] Cc1cccc([C@]23CC[C@@H](N(CCCN4CCN(C)CC4)C(=O)Nc4ccc(F)c(Cl)c4)[C@H]2C3)c1 (relative stereo)
[e] CN1CCN(CCCN(C(=O)Nc2ccc(F)c(Cl)c2)[C@@H]2CC[C@]3(c4cccnc4)C[C@H]23)CC1 (relative stereo)
Qu. Sort entries by Activity from minimum to maximum value. // ordering of labels required in reply
Ans. a, d, c, e, b

[a] CC(=O)Nc1cccc([C@]23CC[C@@H](N(CCCN4CCN(C)CC4)C(=O)Nc4ccc(F)c(Cl)c4)[C@H]2C3)c1 (relative stereo)
[b] CN1CCN(CCCN(C(=O)Nc2ccc(F)c(C(F)(F)F)c2)[C@@H]2CC[C@]3(c4ccc(C#N)c(F)c4)C[C@H]23)CC1 (relative stereo)
[c] CN1CCN(CCCN(C(=O)Nc2ccc(F)c(Cl)c2)[C@@H]2CC[C@]3(c4cccc(N)c4)C[C@H]23)CC1 (relative stereo)
Qu. Sort entries by Activity from minimum to maximum value. // ordering of labels required in reply
Ans. a, b, c
(a: 0%, b: 6%, c: 17%)

[P] COc1cccc([C@]23CC[C@@H](N(CCCN4CCN(C)CC4)C(=O)Nc4ccc(F)c(C(F)(F)F)c4)[C@H]2C3)c1 (relative stereo)
[Q] CN1CCN(CCCN(C(=O)Nc2ccc(F)c(C(F)(F)F)c2)[C@@H]2CC[C@]3(c4cccc(F)c4)C[C@H]23)CC1 (relative stereo)
[R] CN1CCN(CCCN(C(=O)Nc2ccc(F)c(Cl)c2)[C@@H]2CC[C@]3(c4ccc(OC(F)(F)F)cc4)C[C@H]23)CC1 (relative stereo)
[S] CN1CCN(CCCN(C(=O)Nc2ccc(F)c(C(F)(F)F)c2)[C@@H]2CC[C@]3(c4ccc(F)cc4)C[C@H]23)CC1 (relative stereo)
Qu. Sort by Activity, descending. // ordering of labels required in reply
Ans. S, R, Q, P
(S: 29%, R: 15%, Q: 10%, P: 0%)
